Cited source for all entries: patent US20200362047A1

Listing of recorded pEC50 by entry.
Biological target: T1, CD137 on pre-stimulated human CD8+ T cells (human, UniProt Q07011 24-255)
T1 construct: also called pre-stimulated CD8+ cells; primary T cells
T1 sequence (Q07011 24-255 limits assumed): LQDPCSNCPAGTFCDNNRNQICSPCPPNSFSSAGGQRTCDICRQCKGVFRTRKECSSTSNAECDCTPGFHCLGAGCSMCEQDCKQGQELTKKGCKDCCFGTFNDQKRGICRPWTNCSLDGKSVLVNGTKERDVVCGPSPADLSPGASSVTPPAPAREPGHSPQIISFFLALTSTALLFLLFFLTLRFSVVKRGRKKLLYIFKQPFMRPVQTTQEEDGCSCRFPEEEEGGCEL
Assay: flow cytometry, PMA/ionomycin-stimulated human CD8+ T cells, mean of 2-3 donors
pEC50: −log10 of the molar value.

binder	pEC50
Humabody VH 2.14 (VHH, human single VH domain) VH: EVQLVESGGGLVKPGGSLRLSCAASGFTFSDYYMTWFRQAPGKGLEWISYISGSGDTIDYAESVKGRFTISRDNAKNSLYLQMNSLRAEDTAVYYCAREDIRMPGTTDFDHWGQGTLVTVSSHHHHHH	9.21
Humabody VH 1.18 (VHH, human single VH domain) VH: EVQLVESGGGLVQPGGSLRLSCAASGFTFSTHWMNWARQAPGKELEWVANINQDGSEKYYVDSVEGRFTISRDNANNSLYLQMNSLRAEDTAVYYCARGGVGYGDSHFGMDVWGLGTTVTVSSHHHHHH	8.72
Humabody VH 2.26 (VHH, human single VH domain) VHH: EVQLVESGGGLVKPGGSLRLSCTASGFTFTDYYMSWFRQAPGKGLEWVSHISSSGTTIDYADSVKGRFTISRDNAKNSLYLQMNSLRADDTAVYYCAREDIRMPGTTDFDNWGQGTLVTVSS	8.55
Humabody VH 1.52 (VHH, human single VH domain) VH: EVQLVESGGGLVQIGGSLRLSCAASGFTFSKYWMIWVRQAPEKGLEWVANINQDGSEKYYVDSVEGRFTISRDNANNSLFLQMNSLRAEDTAVYYCARGGDDYSISHFGMDVSGQGTRVTVSSHHHHHH	9.06
